Experiment: plasmodial surface anion channel blockers, osmotic lysis – cell-based, P. falciparum Indochina, OD700, 2 h, primary screen (AID 1155);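 also: lysis reports solute entry through the parasite surface anion channel PSAC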
Conditions: P. falciparum Indochina infected erythrocytes, higher = more signal, called active from +8 up or from −8 down
Known z-score of a selection of compounds
Give only the figure.

# COMPOUND, DATA VALUE
records = [
    ("O[C@@H](Cc1ccccc1)[C@@H](/C=C/C1CC1)NCc1cccc(Cl)c1", 1.03),
    ("CC(C)NC(=O)[C@@]1(Cc2ccccc2I)c2ccccc2C(=O)N(Cc2ccccc2Cl)[C@H]1c1ccc(CO)cc1", 1.77),
    ("O=C1C2C=CC(C(O)c3c(F)cccc3Cl)N(Nc3ccccc3F)C2C(=O)N1c1ccccc1 (stereo not drawn)", 1.57),
    ("CC(C)(C)OC(=O)CC[C@]1(C(=O)NCCN2CCOCC2)COC(c2ccc(OCCCO)cc2)=N1", 2.01),
    ("NC(=O)NCC#Cc1ccc2c(c1)[C@]1(C(=O)N2)[C@H](C(=O)O)[C@H]2C(=O)O[C@H](c3ccccc3)[C@H](c3ccccc3)N2[C@@H]1c1ccc(O)cc1", 0.0468),
    ("NC(=O)[C@@H]1[C@H]2C(=O)O[C@H](c3ccccc3)[C@H](c3ccccc3)N2[C@H](c2ccc(OCCO)cc2)[C@@]12C(=O)Nc1ccc(C#CC3=CCCCC3)cc12", 0.651),
]

Q: Query: z-score; subject: COc1ccc(CCNC(=O)[C@@]2(C)c3ccccc3C(=O)N(c3ccc(C)cn3)[C@H]2c2ccc(CO)cc2)cc1
Result: -0.1

Q: Query: z-score; subject: CCOC(=O)C1=CC[C@H]2C(=O)N(c3ccccc3)C(=O)[C@@H]12
Result: 0.772
